# Tested on: HOP-92 NSCLC
# ASSAY_SUMMARY: NCI tumour cell line growth inhibition, 48 h
Please provide measured TGI for the entries that follow.

Sure, the documented TGI for C=CCN1C(N)=C(C#N)C(C#N)(C#N)C1CCC (centres undefined) is > 100 µM

Sure, the documented TGI for CC(C)(Oc1ccc(Cl)cc1)C(=O)N(C(=O)N1CCN(c2ccccc2)CC1)c1ccccc1 is > 100 µM

Sure, the documented TGI for C=C1CCC(OC(C)=O)C2(C)C(OC(C)=O)CC3OC3(C)C2C(OC(C)=O)C2C(C)C(=O)OC2C1Cl (centres undefined) is > 100 µM

Sure, the documented TGI for Cc1cc(C)nc(Sc2c([N+](=O)[O-])ncn2C)n1 is > 100 µM

Sure, the documented TGI for CC(C)(C)OC(=O)NC(Cc1ccc(OCc2ccccc2)cn1)C(=O)N1CCCC1 (centres undefined) is > 100 µM

Sure, the documented TGI for CCCCCCCCCCCCCCCCCCOP1(=O)OCCO1 is > 100 µM

Sure, the documented TGI for COc1cc(/C=C2\C[C@H]3[C@@H]4CC=C5C[C@@H](OC(C)=O)CC[C@]5(C)[C@H]4CC[C@]3(C)\C2=N\O)cc(OC)c1OC is 9.43 µM

Sure, the documented TGI for Cn1cc(-c2nonc2-c2cn(C)c3ccc(F)cc23)c2ccccc21 is > 100 µM

Sure, the documented TGI for COC12OCCN(CCO)C1=CC(=O)C1(C)N=NC(C)C12 (centres undefined) is > 100 µM

Sure, the documented TGI for COc1cc2c(cc1OC)C(C#N)(Cc1ccccc1)N(C(=O)c1ccccc1)C=C2 (centres undefined) is > 100 µM

Sure, the documented TGI for c1ccc(-c2[o+]c(-c3ccccc3)c(-c3ccccc3)c(-c3ccccc3)c2-c2ccccc2)cc1 is > 100 µM

Sure, the documented TGI for CCN(CC)c1ccc(/C=N/NC(=O)c2ccc(S(C)(=O)=O)cc2)c(O)c1 is 32.9 µM

Sure, the documented TGI for O=C1C(N2CCOCC2)=C(Cl)C(=O)c2ncccc21 is 2.84 µM

Sure, the documented TGI for COC1=CC(=O)[C@]2(C)[C@H](C1=O)C(C)[C@H]2c1ccc(OC)cc1 (some centres undefined) is > 100 µM

====

# Test system: HS 578T breast
# ASSAY_SUMMARY: NCI tumour cell line growth inhibition, 48 h
PARAMETER: TGI

Sure, the documented TGI for CC(C)NC(=O)OCc1c(COC(=O)NC(C)C)c(-c2ccc[n+](COC(=O)C(C)C)c2)n2c1CCC2 is > 100 µM

Sure, the documented TGI for CC1CC(NN)=Nc2ccccc2N1 (stereo unspecified) is > 100 µM

Sure, the documented TGI for COc1cccc2c(=O)c3c(n(C)c12)OC(C(C)C)C3 (stereo unspecified) is > 100 µM

Sure, the documented TGI for CCOC(=O)c1c(SC(=O)C(C)(C)Oc2ccc(Cl)cc2)n(-c2ccccc2)c(=S)n(-c2ccccc2)c1=O is > 100 µM

Sure, the documented TGI for O=C(CC(=O)N1N=C(N2c3ccccc3Sc3ccccc32)CC1c1ccccc1)Nc1ccccc1Cl (stereo unspecified) is > 100 µM

Sure, the documented TGI for NC(N)=N/N=C\c1ccc(C2CCNCC2)cc1 is > 100 µM

====

# Tested on: M14 melanoma
# ASSAY_SUMMARY: NCI tumour cell line growth inhibition, 48 h
Please provide measured TGI for the entries that follow.

Entry CC(C)(C)C1=NC(=P(c2ccccc2)(c2ccccc2)c2ccccc2)C(=O)O1 under M14 melanoma had TGI of > 100 µM

Entry CC1=CC(O)(c2ccccc2)C(N2CCOCC2)N1O (stereo not given) under M14 melanoma had TGI of > 100 µM

Entry C=CCCCCCCCC(O)C1C[C@H](O)C(CCCCC)O1 (stereo not given in full) under M14 melanoma had TGI of 34.6 µM

Entry COc1cc(C2S/C(=C/c3ccccc3)C(=O)N2c2cccc(Cl)c2)cc(OC)c1OC (stereo not given) under M14 melanoma had TGI of > 100 µM

Entry CCOCc1cc(=O)c2cc3c(cc2o1)OC(C)(C)CC3 under M14 melanoma had TGI of > 100 µM

====

# Test system: RPMI-8226 leukemia
# ASSAY_SUMMARY: NCI tumour cell line growth inhibition, 48 h
Please provide measured TGI for the entries that follow.

Sure, the documented TGI for CCOC(=O)Cn1c(=O)[nH]c(=O)c2c1ncn2Cc1ccccc1 is > 100 µM

Sure, the documented TGI for C#C[C@]1(O)CCC2C3CCc4cc(Oc5nc(F)nc(-n6c(C)nc7cc8ccccc8cc76)n5)ccc4C3CCC21C (stereo partly specified) is > 100 µM

Sure, the documented TGI for Cc1ccc(NC(=O)/C=C/c2ccccc2)c(C)c1 is > 100 µM

Sure, the documented TGI for NCCNS(=O)(=O)c1ccc(N)cc1 is > 100 µM

Sure, the documented TGI for COc1cc(C)cc2c1[nH]c1ccccc12 is > 25 µM

Sure, the documented TGI for CC1(C(=O)Nc2ccc3cc4ccccc4cc3c2)CC2(C)CC(C)(C1)C(O)NC2=O (stereo unspecified) is > 100 µM

====

Please provide measured GI50 for the entries that follow.
# Test system: MDA-MB-231 breast
# ASSAY_SUMMARY: NCI tumour cell line growth inhibition, 48 h

Sure, the documented GI50 for CS(=O)(=O)CCN(CC#N)Cc1ccc(-c2ccc3ncnc(Nc4ccc(OCc5cccc(F)c5)c(Cl)c4)c3c2)o1 is 8.35 µM

Sure, the documented GI50 for COc1cc(C2CC(c3cccc(Nc4ccnc5cc(Cl)ccc45)c3)=NN2C=O)cc(OC)c1OC (configuration not stated) is 1.36 µM

Sure, the documented GI50 for CCn1c(-c2nonc2N)nc2c(C#CC(C)(C)O)nc(CN3CCCC3)cc21 is > 25 µM

Sure, the documented GI50 for C=CCNCCN1C(=O)c2ccc3c4c(ccc(c24)C1=O)C(=O)N(CCNCC=C)C3=O is 1.26 µM

Sure, the documented GI50 for COc1ccc(C2C(C#N)=C(N)Oc3c2sc2c(F)cccc32)cc1 (configuration not stated) is 3.77 µM

Sure, the documented GI50 for COc1ccc(NC(=O)Nc2ccccc2CNc2nc(Nc3ccc(OCCN4CCCC4)cc3)ncc2Cl)cc1 is 0.953 µM

Sure, the documented GI50 for Clc1nc(Cl)c2ncn(C/C=C\COc3cccc(OC/C=C\Cn4cnc5c(Cl)nc(Cl)nc54)c3)c2n1 is > 100 µM

====

# Test system: CCRF-CEM leukemia
# ASSAY_SUMMARY: NCI tumour cell line growth inhibition, 48 h
Please provide measured TGI for the entries that follow.

Sure, the documented TGI for COc1cc(C2S/C(=C/c3ccccc3)C(=O)N2c2cccc(Cl)c2)cc(OC)c1OC (stereo not drawn) is 73.4 µM

Sure, the documented TGI for CCCCCCCCCCCCCCCCCCOP1(=O)OCCO1 is > 100 µM

Sure, the documented TGI for CN(C(=O)Nc1ccc(Cl)c(Cl)c1)C1CCCC[C@@H]1N1CCCC1 (stereo partly drawn) is > 100 µM

Sure, the documented TGI for CCc1nnc(CC)n1N1C(=O)CCC1=O is > 100 µM

Sure, the documented TGI for CC(OC(C)(C)C)[C@H](NC(=O)OCc1ccccc1)C(=O)NC(OCc1ccccc1)[C@H]1COC(C)(C)O1 (stereo partly drawn) is > 10 µM

Sure, the documented TGI for O=[As]O is > 66.8 µM

Sure, the documented TGI for CC1(C(=O)Nc2ccc3cc4ccccc4cc3c2)CC2(C)CC(C)(C1)C(O)NC2=O (stereo not drawn) is > 100 µM

Sure, the documented TGI for COc1ccc(C2SC(N)=Nc3c2c(C)nn3C(=O)c2ccccc2O)cc1 (stereo not drawn) is > 10 µM

Sure, the documented TGI for Cc1cc2nc(N3C(=O)/C(=C/c4ccc(Oc5ccccc5)cc4)N=C3c3ccccc3)sc2cc1C is > 100 µM

Sure, the documented TGI for CC(NC(=O)OC(C)(C)C)C(=O)NC(Cc1ccccc1)C(=O)NCC(=O)ON=C1CCCC1 (stereo not drawn) is > 100 µM

Sure, the documented TGI for Cn1c(=O)c2ccccc2c2ccccc21 is > 100 µM

Sure, the documented TGI for COc1ccc(NC(=O)Nc2ccccc2CNc2nc(Nc3ccc(OCCN4CCCC4)cc3)ncc2Cl)cc1 is > 50 µM

Sure, the documented TGI for C[C@H]1CCC/C=C/[C@@H]2C[C@H](O)C[C@H]2[C@H](O)[C@@H](S(=O)C[C@@H](N)C(=O)O)CC(=O)O1 (stereo partly drawn) is 50.2 µM

====

# Test system: OVCAR-4 ovarian
# ASSAY_SUMMARY: NCI tumour cell line growth inhibition, 48 h
PARAMETER: TGI

Sure, the documented TGI for COc1ccc(C2SC(N)=Nc3c2c(C)nn3C(=O)c2ccccc2O)cc1 (stereo unspecified) is > 10 µM

Sure, the documented TGI for CC(C)(C)C(=O)C(C(=O)c1ccccc1)C(=O)C(C)(C)C is > 100 µM

Sure, the documented TGI for COC(=O)c1cc(C)n(CN(Cn2nc(C(=O)OC)cc2C)c2ccccc2)n1 is > 100 µM

Sure, the documented TGI for O=C1OC(c2ccccc2)=N/C1=C\c1ccc(Cl)cc1 is > 100 µM

Sure, the documented TGI for CN(C)CCn1cnc2sc3ccccc3c21 is > 100 µM

Sure, the documented TGI for Cn1cc(-c2nonc2-c2cn(C)c3ccc(F)cc23)c2ccccc21 is > 100 µM
